Listed here: items and their measured EC50.
# Test system: Human alphaherpesvirus 1
# EXPERIMENT_DESCRIPTION: Antiviral activity against ACV-resistant thymidine kinase deficient Herpes simplex virus 1 KOS infected in HEL cells assessed as inhibition of virus-induced cytopathic effect measured after 2 to 3 days post-infection
# Type: functional, organism-based
# CONDITION_SUMMARY: Human alphaherpesvirus 1, KOS
MEASUREMENT_TYPE: EC50

1. Nc1nc2c(ncn2CCC(CO)CO)c(=O)[nH]1 = > 79000 nM
2. O=c1[nH]c(=O)n([C@H]2C[C@H](O)[C@@H](CO)O2)cc1/C=C/Br = > 30000 nM
3. CCCCCOC(=O)[C@H](C)NP1(=O)CO[C@@H](Cn2cnc3c(N)ncnc32)CO1 (stereo not given in full) = 10 nM
4. CCCCCOC(=O)[C@@H](NP(=O)(CO[C@H](CO)Cn1cnc2c(N)ncnc21)N[C@H](C(=O)OCCCCC)C(C)C)C(C)C = 0.9 nM
5. Nc1ccn(C[C@@H](CO)OCP(=O)(O)O)c(=O)n1 = 1950 nM

* * *

# EXPERIMENT_DESCRIPTION: Selectivity index, ratio of CC50 for HEL cells to EC50 for Herpes simplex virus 1 KOS infected in HEL cells
# Format: toxicity, cell-based
# CONDITION_SUMMARY: human, read-out: Ratio CC50/EC50
MEASUREMENT_TYPE: selectivity ratio

1) CCCCCOC(=O)[C@H](Cc1ccccc1)NP1(=O)CO[C@@H](Cn2cnc3c(N)ncnc32)CO1 (some centres not stated) = > 4400
2) CCCCCOC(=O)[C@@H](NP1(=O)CO[C@@H](Cn2cnc3c(N)ncnc32)CO1)[C@@H](C)CC (some centres not stated) = > 4400

* * *

# EXPERIMENT_DESCRIPTION: Cytotoxicity against HEL cells assessed as reduction in cell viability after 3 days by coulter counting method
# Format: cell-based
# CONDITION_SUMMARY: human
Listed here: items and their measured CC50 at 72 h.
MEASUREMENT_TYPE: CC50 at 72 h (µM)

1. CCCCCOC(=O)[C@@H](NP1(=O)CO[C@@H](Cn2cnc3c(N)ncnc32)CO1)[C@@H](C)CC (some centres undefined) = 12
2. CCCCCOC(=O)[C@H](C)NP1(=O)CO[C@@H](Cn2cnc3c(N)ncnc32)CO1 (some centres undefined) = 3.4
3. CCCCCOC(=O)[C@H](Cc1ccccc1)NP1(=O)CO[C@@H](Cn2cnc3c(N)ncnc32)CO1 (some centres undefined) = 30.6
4. CCCCCOC(=O)C[C@H](NP1(=O)CO[C@@H](Cn2cnc3c(N)ncnc32)CO1)C(=O)OCCCCC (some centres undefined) = 2.73
5. CCCCCOC(=O)CC[C@H](NP1(=O)CO[C@@H](Cn2cnc3c(N)ncnc32)CO1)C(=O)OCCCCC (some centres undefined) = 0.52
6. CCCCCOC(=O)[C@@H](NP(=O)(CO[C@H](CO)Cn1cnc2c(N)ncnc21)N[C@H](C(=O)OCCCCC)C(C)C)C(C)C = 0.6
7. CCCCCOC(=O)[C@H](CCSC)NP1(=O)CO[C@@H](Cn2cnc3c(N)ncnc32)CO1 (some centres undefined) = 39.6
8. CCCCCOC(=O)[C@@H](NP1(=O)CO[C@@H](Cn2cnc3c(N)ncnc32)CO1)C(C)C (some centres undefined) = 7.76
9. CCCCCOC(=O)CC(NP1(=O)COC(Cn2cnc3c(N)ncnc32)CO1)C(=O)OCCCCC (single isomer, unassigned) = 11.6
10. CCCCCOC(=O)[C@H](CC(C)C)NP1(=O)CO[C@@H](Cn2cnc3c(N)ncnc32)CO1 (some centres undefined) = 1.62
